System: C. albicans MMX 2000 ATCC 10231
Assay: MIC assay (CLSI microdilution)
Format: cell-based
Conditions: Candida albicans, ATCC10231, RPMI plus 0.002% Tween-80; read-out: MIC
Procedure: Aureobasidin and test compounds (i.e., AbA derivatives of the present invention) were received from Kalexsyn, Inc. (Kalamazoo, Mich.) as powder and were stored at 4° C. until the day of assay. […] amphotericin was obtained from Sigma Aldrich and stored under like conditions. […] Ethanol (95%) was used as a solvent and diluent for all AbA compounds. Amphotericin B was tested from 0.06-64 μg/mL. […]
Numbered stars: 1 amine (or outer) side, 2 acyl side, 3 side chain; on linkers, the order of the positions; unused ones are H or OH. Square brackets hold non-standard residues; d marks the D form. Peptide text beside a SMILES is read from it. X13 = CN([C@@H](Cc1cccc(-c2ccc(N3CCN(C(=O)OC(C)(C)C)CC3)nc2)c1)C(=O)[*:2])[*:1]; X33 = CN([C@@H](Cc1cccc(-c2ccc3ccccc3c2)c1)C(=O)[*:2])[*:1]; Hmp(2R,3S) = CC[C@H](C)[C@@H](O)C(=O)O; NMeVal(β-OH) = CN[C@H](C(=O)O)C(C)(C)O; NMeV = CN[C@H](C(=O)O)C(C)C
readout kind: MIC (mg/L)
Express the result in mg/L but write the number alone.

Input line: API: value(readout= MIC, system= C. albicans MMX 2000 ATCC 10231, query= CC[C@H](C)[C@@H]1NC(=O)[C@@H]2CCCN2C(=O)[C@H](Cc2cccc(-c3ccc4ccccc4c3)c2)N(C)C(=O)[C@H](Cc2ccccc2)NC(=O)[C@H](C(C)C)N(C)C(=O)[C@@H]([C@@H](C)CC)OC(=O)[C@H](C(C)(C)O)N(C)C(=O)[C@H](CC(C)C)NC(=O)[C@H](C(C)C)N(C)C1=O [Compound 5] (cyclo(F[X33]PI[NMeV]L[NMeVal(β-OH)][Hmp(2R,3S)][NMeV])) )
Output line: 0.12

Input line: API: value(readout= MIC, system= C. albicans MMX 2000 ATCC 10231, query= CC[C@H](C)[C@@H]1NC(=O)[C@@H]2CCCN2C(=O)[C@H](Cc2cccc(-c3ccc(N4CCN(C(=O)OC(C)(C)C)CC4)nc3)c2)N(C)C(=O)[C@H](Cc2ccccc2)NC(=O)[C@H](C(C)C)N(C)C(=O)[C@@H]([C@@H](C)CC)OC(=O)[C@H](C(C)(C)O)N(C)C(=O)[C@H](CC(C)C)NC(=O)[C@H](C(C)C)N(C)C1=O [Compound 26] (cyclo(F[X13]PI[NMeV]L[NMeVal(β-OH)][Hmp(2R,3S)][NMeV])) )
Output line: 0.12
